A set of compounds tested on human Cereblon WT GST-tagged protein (Homo sapiens (Human)), with measured pIC50:
pIC50: −log10 of the molar value.

Compound	pIC50
O=C1CCC(N2Cc3cc(CN4CC5CCC4CN5C(c4ccccc4)c4ccccc4)c(F)cc3C2=O)C(=O)N1 (stereo not shown)	6.00 to 6.30
O=C1CCC(N2Cc3cc(C(=O)N4CC5CCC(C4)N5C(c4ccccc4)c4ccccc4)cc(F)c3C2=O)C(=O)N1 (stereo not shown)	6.00 to 6.30
O=C1CCC(N2Cc3cc(CN4CC5(CCN(C(c6ccccc6)c6ccccc6)CC5)C4)c(F)cc3C2=O)C(=O)N1 (stereo not shown)	6.00 to 6.30

Shifting focus to the compound that follows.
What measured pIC50 is associated with CC1CN(C(c2ccccc2)c2ccccc2)CC(C)N1C(=O)c1ccc2c(c1)C(=O)N(C1CCC(=O)NC1=O)C2=O (stereo not shown) on human Cereblon WT GST-tagged protein (Homo sapiens (Human))? 5.72 to 6.00

* * *

Target System: IKZF1 (Homo sapiens (Human), UniProt Q13422+Q96SW2)
Sequence (Q13422 whole entry, one chain of several): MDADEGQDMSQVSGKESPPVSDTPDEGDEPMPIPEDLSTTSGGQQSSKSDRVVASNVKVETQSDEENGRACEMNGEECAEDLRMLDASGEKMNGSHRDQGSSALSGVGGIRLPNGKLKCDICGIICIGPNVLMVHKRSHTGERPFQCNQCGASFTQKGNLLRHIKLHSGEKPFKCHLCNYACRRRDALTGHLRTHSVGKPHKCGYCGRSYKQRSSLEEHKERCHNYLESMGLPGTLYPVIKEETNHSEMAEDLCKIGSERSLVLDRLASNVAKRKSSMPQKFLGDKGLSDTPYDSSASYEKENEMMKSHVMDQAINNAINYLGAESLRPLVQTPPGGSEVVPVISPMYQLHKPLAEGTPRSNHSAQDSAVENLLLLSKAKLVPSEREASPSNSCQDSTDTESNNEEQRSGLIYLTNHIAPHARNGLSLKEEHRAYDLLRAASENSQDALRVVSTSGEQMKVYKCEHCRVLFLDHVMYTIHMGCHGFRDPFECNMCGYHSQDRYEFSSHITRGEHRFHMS
Sequence (Q16531 whole entry partner, one chain of several): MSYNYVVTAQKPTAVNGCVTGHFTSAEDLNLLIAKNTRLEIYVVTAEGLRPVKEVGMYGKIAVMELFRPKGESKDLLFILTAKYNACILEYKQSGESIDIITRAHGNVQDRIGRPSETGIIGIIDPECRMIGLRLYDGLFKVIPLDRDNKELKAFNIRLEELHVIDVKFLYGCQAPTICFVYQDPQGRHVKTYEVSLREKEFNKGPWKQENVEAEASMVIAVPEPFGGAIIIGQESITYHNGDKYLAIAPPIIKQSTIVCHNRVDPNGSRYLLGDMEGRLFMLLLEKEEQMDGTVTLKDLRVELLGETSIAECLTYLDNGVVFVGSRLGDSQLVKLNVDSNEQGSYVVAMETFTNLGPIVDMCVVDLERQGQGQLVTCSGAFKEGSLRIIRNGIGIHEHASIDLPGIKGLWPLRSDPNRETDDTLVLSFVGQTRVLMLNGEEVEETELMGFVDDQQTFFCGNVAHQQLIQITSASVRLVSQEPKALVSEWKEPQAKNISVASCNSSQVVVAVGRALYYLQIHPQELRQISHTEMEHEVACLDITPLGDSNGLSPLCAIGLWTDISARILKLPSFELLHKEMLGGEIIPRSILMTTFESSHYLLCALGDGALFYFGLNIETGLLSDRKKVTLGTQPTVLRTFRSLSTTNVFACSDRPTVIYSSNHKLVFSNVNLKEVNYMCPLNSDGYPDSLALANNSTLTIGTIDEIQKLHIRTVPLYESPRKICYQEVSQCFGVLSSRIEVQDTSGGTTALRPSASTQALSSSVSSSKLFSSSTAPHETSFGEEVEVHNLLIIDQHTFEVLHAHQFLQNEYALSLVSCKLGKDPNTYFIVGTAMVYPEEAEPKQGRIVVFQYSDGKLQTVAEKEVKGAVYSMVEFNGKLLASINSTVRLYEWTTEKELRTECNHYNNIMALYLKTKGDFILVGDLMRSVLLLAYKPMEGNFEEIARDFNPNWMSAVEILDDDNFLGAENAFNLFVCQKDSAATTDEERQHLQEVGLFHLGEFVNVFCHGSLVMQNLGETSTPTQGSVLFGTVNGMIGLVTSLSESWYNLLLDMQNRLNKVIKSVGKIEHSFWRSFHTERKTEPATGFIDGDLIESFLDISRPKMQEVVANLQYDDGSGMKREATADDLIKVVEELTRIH
Procedure Details: Western blot, substrate protein expression in hPBMC: IKZF1
Format: cell-based
Condition Set: hPBMCs
Value Kind: concentration at which IKZF1 protein was significantly degraded (Western blot, FIG. 1)

Compound	Result
O=C1CCC(N2C(=O)c3ccc(CN4CCC(N(c5ccccc5)c5ccccn5)CC4)cc3C2=O)C(=O)N1 (stereo not drawn)	below 50 nM
O=C1CCC(N2Cc3cc(CCCN4CCN(C(c5ccccc5)c5ccccc5)CC4)ccc3C2=O)C(=O)N1 (stereo not drawn)	below 50 nM
O=C1CCC(N2Cc3c(ccc(CN4CCC(N(c5ccccc5)c5ccccn5)CC4)c3F)C2=O)C(=O)N1 (stereo not drawn)	below 50 nM
O=C1CCC(N2Cc3cc(CN4CCC(N(c5ccccc5)c5ccccn5)CC4)ccc3C2=O)C(=O)N1 (stereo not drawn)	below 50 nM
O=C1CCC(N2C(=O)c3ccc(CN4CCN(C(c5ccccc5)c5ccccc5)CC4)cc3C2=O)C(=O)N1 (stereo not drawn)	< 500 nM

What does the record list as concentration at which IKZF1 protein was significantly degraded (Western blot, FIG. 1) for O=C1CCC(N2Cc3cc(CN4CCC(N(c5ccccc5)c5ccccn5)CC4)c(F)cc3C2=O)C(=O)N1 (stereo not drawn) ? below 50 nM

* * *

Target System: human Cereblon WT GST-tagged protein (Homo sapiens (Human))
Sequence (Q96SW2 whole entry): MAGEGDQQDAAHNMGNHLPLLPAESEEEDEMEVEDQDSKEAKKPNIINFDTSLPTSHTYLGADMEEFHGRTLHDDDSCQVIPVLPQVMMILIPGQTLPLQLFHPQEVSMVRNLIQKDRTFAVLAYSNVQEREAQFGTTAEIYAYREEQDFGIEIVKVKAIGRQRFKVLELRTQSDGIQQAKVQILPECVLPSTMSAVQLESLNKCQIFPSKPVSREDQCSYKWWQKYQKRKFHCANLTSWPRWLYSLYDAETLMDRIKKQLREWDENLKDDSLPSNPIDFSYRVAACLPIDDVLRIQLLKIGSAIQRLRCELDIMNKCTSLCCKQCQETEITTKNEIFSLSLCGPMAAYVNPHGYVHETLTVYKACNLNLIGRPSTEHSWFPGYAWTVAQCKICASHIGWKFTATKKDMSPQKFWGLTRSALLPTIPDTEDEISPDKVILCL
Procedure Details: CRBN-binding affinity, HTRF (CEREBLON BINDING kit, CISBIO)
Condition Set: HTRF inhibitory activity
Value Kind: IC50

Below, 5 molecules whose answers are already recorded.
Molecule	Result
O=C1CCC(N2C(=O)c3ccc(CN4CC5CCC4CN5C(c4ccccc4)c4ccccc4)cc3C2=O)C(=O)N1 (stereo not shown) [GT-05730]	1000 to 1900 nM
O=C1CCC(N2Cc3cc(C(=O)N4CCN(C(c5ccc(Cl)cc5)c5ccc(Cl)cc5)CC4)ccc3C2=O)C(=O)N1 (stereo not shown) [GT-05886]	1000 to 1900 nM
O=C1CCC(N2Cc3cc(CN4CCN(C(c5ccccc5)c5ccc(Br)cc5)CC4)ccc3C2=O)C(=O)N1 (stereo not shown) [GT-06640]	500 to 1000 nM
O=C1CCC(N2Cc3cc(CN4CC5CCC(C4)N5C(c4ccccc4)c4ccccc4)ccc3C2=O)C(=O)N1 (stereo not shown) [GT-03722]	< 500 nM
O=C1CCC(N2Cc3c(C(=O)N4CCN(C(c5ccccc5)c5ccccc5)CC4)cccc3C2=O)C(=O)N1 (stereo not shown) [GT-05721]	500 to 1000 nM

Could you share what IC50 was measured for C[C@@H]1CN(C(c2ccccc2)c2ccccc2)CCN1Cc1cc2c(cc1F)C(=O)N(C1CCC(=O)NC1=O)C2 (stereo partly shown) [GT-06046] , tested on human Cereblon WT GST-tagged protein (Homo sapiens (Human))? 500 to 1000 nM

Query the reported IC50 for human Cereblon WT GST-tagged protein (Homo sapiens (Human)); item: O=C1CCC(N2Cc3cc(C(=O)N4CCN(C(c5ccccc5)c5ccccc5)CC4)ccc3C2=O)C(=O)N1 (stereo not shown) [GT-05689] 500 to 1000 nM

* * *

System: MM.1R cells (dexamethasone-resistant human multiple myeloma cells)
Procedure Details: Tumor cell proliferation inhibition, CCK-8
Type: cell-based
Condition Set: MM.1R cells, CCK-8, read-out: inhibitory activity (IC50, nM) MM.1R
Value Kind: IC50

// worked examples, IC50 included
Compound	IC50
O=C1CCC(N2Cc3cc(CN4CCN(C(c5cccc(F)c5)c5cccc(F)c5)CC4)ccc3C2=O)C(=O)N1 (stereo not drawn)	1 to 10 nM
O=C1CCC(N2Cc3cc(CN4CCN(C(c5ccc(Cl)cc5)c5ccc(Cl)cc5)CC4)ccc3C2=O)C(=O)N1 (stereo not drawn)	100 to 500 nM
O=C1CCC(N2Cc3c(ccc(CN4CCN(C(c5ccccc5)c5ccccn5)CC4)c3F)C2=O)C(=O)N1 (stereo not drawn)	1 to 10 nM

Recorded IC50 of O=C1CCC(N2Cc3c(ccc(CN4CCN(C(c5cccc(F)c5)c5cccc(F)c5)CC4)c3F)C2=O)C(=O)N1 (stereo not drawn) , please. 1 to 10 nM

Sample O=C1CCC(N2Cc3cc(CN4CCN(C(c5ccccc5)c5ccccc5)CC4)ccc3C2=O)C(=O)N1 (stereo not drawn) — what was its IC50? < 1 nM

# lookup: IC50 of O=C1CCC(N2Cc3cc(CN4CCN(C(c5ccccc5)c5ccccn5)CC4)c(F)cc3C2=O)C(=O)N1 (stereo not drawn) 1 to 10 nM
